Target: human TCRvβ (BIM0444) (human)
Sequence (A0A0K0K1A5 22-114): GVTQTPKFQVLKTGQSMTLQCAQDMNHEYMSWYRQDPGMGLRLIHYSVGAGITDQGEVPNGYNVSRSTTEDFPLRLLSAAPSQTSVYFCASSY
Assay: SPR (Biacore): antibody captured via anti-human Fc on CM5, BIM0444 as analyte, 1:1 fit
The binders listed here are annotated with their Kd.
Kindly answer with a numeric value in nM, unit omitted.

Reported Kd of BJM0897 (antibody, V domains shown) VH: QVQLVQSGAEVKKPGSSVKVSCKASGTDFKLTYIHWVRQAPGQGLEWMGRIFPGSGNVKYNEKFKGRVTITADTSTSTAYMELSSLRSEDTAVYYCAGSYYSYDVLDYWGQGTTVTVSS VL: DIQMTQSPSFLSASVGDRVTITCKASQNVDNRVAWYQQKPGKAPKALIYSSSHRYKGVPSRFSGSGSGTEFTLTISSLQPEDFATYFCQQFKSYPLTFGQGTKLEIK : 7.2

Reported Kd of A-H.66 (scFv) scFv: QVQLVQSGAEVKKPGSSVKVSCKASGHDFKLTYIHWVRQAPGQGLEWMGRIYAGSGNTKYNEKFKGRVTITADTSTSTAYMELSSLRSEDTAVYYCAVSYYSYDVLDYWGQGTTVTVSSGGGGSGGGGSGGGGSGGGGSDIQMTQSPSFLSASVGDRVTITCKASQNVGDRVVWHQQKPGKAPKALIYSSSHRYKGVPSRFSGSGSGTEFTLTISSLQPEDFATYFCQQFKSYPLTFGQGTKLEIK : 0.338

Reported Kd of A-H.59 (scFv) scFv: QVQLVQSGAEVKKPGSSVKVSCKASGHDFRLTYIHWVRQAPGQGLEWMGRIYAGSGNVKYNEKFKGRVTITADTSTSTAYMELSSLRSEDTAVYYCAVSYYSYDVLDYWGQGTTVTVSSGGGGSGGGGSGGGGSGGGGSDIQMTQSPSFLSASVGDRVTITCKASQNVADRVVWHQQKPGKAPKALIYSSSHRYKGVPSRFSGSGSGTEFTLTISSLQPEDFATYFCQQFKSYPLTFGQGTKLEIK : 0.323
